The values you see were collected from paper PMC5700166.

Target: GST-Nv-NF-kB (Cys allele) (Nematostella vectensis, UniProt E5G601 2-411)
Sequence: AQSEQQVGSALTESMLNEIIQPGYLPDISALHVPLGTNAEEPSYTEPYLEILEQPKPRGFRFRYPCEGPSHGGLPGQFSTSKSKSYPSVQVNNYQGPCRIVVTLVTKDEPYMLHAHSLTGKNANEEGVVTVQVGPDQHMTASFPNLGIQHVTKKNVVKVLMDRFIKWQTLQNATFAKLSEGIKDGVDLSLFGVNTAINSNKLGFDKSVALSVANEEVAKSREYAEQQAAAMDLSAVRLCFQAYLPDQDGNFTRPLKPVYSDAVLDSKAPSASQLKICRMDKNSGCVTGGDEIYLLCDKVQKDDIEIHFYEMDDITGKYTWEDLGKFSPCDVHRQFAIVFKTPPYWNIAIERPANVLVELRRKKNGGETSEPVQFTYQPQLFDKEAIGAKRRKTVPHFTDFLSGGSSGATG
Assay: protein-binding microarray (PBM); PBM: ~300 nM protein, 6 mM HEPES pH 7.8, 80 mM KCl, 0.5 mM EDTA, 0.5 mM EGTA, 6% glycerol, 35 ng/ul poly-dIdC, 1% milk, 1 h, room temperature; Ap Aiptasia and Nv Nematostella (sea anemones) / Co Capsaspora / Aq Amphimedon (sponge) / Dm Drosophila / Hu human; RHD is the Rel homology domain; high values mean tight binding
Conditions: dsDNA, one strand shown
Measurement kind: log10 binding signal (log10 of the value in z-score)

                              query_sequence      measurement_kind  numeric_value
 0  CCGATTAACATCAAGGATCCCCCTGATGTTAATCGGGTCTTGATTCGCTTGACGCTGCTG  log10 binding signal           0.81
 1  CCGATTAACATCAGGGGAGTACATGATGTTAATCGGGTCTTGATTCGCTTGACGCTGCTG  log10 binding signal           0.46
 2  CCGATTAACATCAAACAAACCCCTGATGTTAATCGGGTCTTGATTCGCTTGACGCTGCTG  log10 binding signal           0.53
 3  CCGATTAACATCACGGGAAGTACTGATGTTAATCGGGTCTTGATTCGCTTGACGCTGCTG  log10 binding signal           0.16
 4  CCGATTAACATCAAGGACTTTCCTGATGTTAATCGGGTCTTGATTCGCTTGACGCTGCTG  log10 binding signal           0.01
 5  CCGATTAACATCAGGGGAGACAATGATGTTAATCGGGTCTTGATTCGCTTGACGCTGCTG  log10 binding signal           0.50
 6  CCGATTAACATCAGGGGAACTACTGATGTTAATCGGGTCTTGATTCGCTTGACGCTGCTG  log10 binding signal           0.84
 7  CCGATTAACATCAATTTACCCCCTGATGTTAATCGGGTCTTGATTCGCTTGACGCTGCTG  log10 binding signal           0.69
 8  CCGATTAACATCATCAGTTTCCCTGATGTTAATCGGGTCTTGATTCGCTTGACGCTGCTG  log10 binding signal           0.50
 9  CCGATTAACATCAGGGAAATCAATGATGTTAATCGGGTCTTGATTCGCTTGACGCTGCTG  log10 binding signal           0.56
10  CCGATTAACATCAATTTCCCCCGTGATGTTAATCGGGTCTTGATTCGCTTGACGCTGCTG  log10 binding signal           0.82
11  CCGATTAACATCAGGGGAAGAACTGATGTTAATCGGGTCTTGATTCGCTTGACGCTGCTG  log10 binding signal           0.78
12  CCGATTAACATCAAGGGACCCCCTGATGTTAATCGGGTCTTGATTCGCTTGACGCTGCTG  log10 binding signal           0.50
13  CCGATTAACATCAAGGGAACCCCTGATGTTAATCGGGTCTTGATTCGCTTGACGCTGCTG  log10 binding signal           0.50
14  CCGATTAACATCAGAGAATCCCCTGATGTTAATCGGGTCTTGATTCGCTTGACGCTGCTG  log10 binding signal           0.99
15  CCGATTAACATCAAGGGGGGTATTGATGTTAATCGGGTCTTGATTCGCTTGACGCTGCTG  log10 binding signal           0.64
16  CCGATTAACATCAAAACCCCCCTTGATGTTAATCGGGTCTTGATTCGCTTGACGCTGCTG  log10 binding signal           0.86
17  CCGATTAACATCAAAATATCCCCTGATGTTAATCGGGTCTTGATTCGCTTGACGCTGCTG  log10 binding signal           0.97
18  CCGATTAACATCAAACGTTCCCCTGATGTTAATCGGGTCTTGATTCGCTTGACGCTGCTG  log10 binding signal           0.76
19  CCGATTAACATCAGGGAAATCCCTGATGTTAATCGGGTCTTGATTCGCTTGACGCTGCTG  log10 binding signal           1.06
20  CCGATTAACATCAATCCCCCCCATGATGTTAATCGGGTCTTGATTCGCTTGACGCTGCTG  log10 binding signal           0.75
21  CCGATTAACATCAGGAAATCACCTGATGTTAATCGGGTCTTGATTCGCTTGACGCTGCTG  log10 binding signal           0.55
22  CCGATTAACATCAGAATTCCCCCTGATGTTAATCGGGTCTTGATTCGCTTGACGCTGCTG  log10 binding signal           1.07
23  CCGATTAACATCAGGGAATCCACTGATGTTAATCGGGTCTTGATTCGCTTGACGCTGCTG  log10 binding signal           0.52
24  CCGATTAACATCAAAATCTCCCCTGATGTTAATCGGGTCTTGATTCGCTTGACGCTGCTG  log10 binding signal           0.88
25  CCGATTAACATCAGGAAAGCCCCTGATGTTAATCGGGTCTTGATTCGCTTGACGCTGCTG  log10 binding signal           1.00
26  CCGATTAACATCAAGGAATTACCTGATGTTAATCGGGTCTTGATTCGCTTGACGCTGCTG  log10 binding signal           0.31
27  CCGATTAACATCAGGAAAACCCCTGATGTTAATCGGGTCTTGATTCGCTTGACGCTGCTG  log10 binding signal           0.95
28  CCGATTAACATCAGAAACTCCCATGATGTTAATCGGGTCTTGATTCGCTTGACGCTGCTG  log10 binding signal           0.54
29  CCGATTAACATCAAAATTCCCCATGATGTTAATCGGGTCTTGATTCGCTTGACGCTGCTG  log10 binding signal           1.00
30  CCGATTAACATCACATTCTCCCCTGATGTTAATCGGGTCTTGATTCGCTTGACGCTGCTG  log10 binding signal           0.65
31  CCGATTAACATCAAAAGTACCCCTGATGTTAATCGGGTCTTGATTCGCTTGACGCTGCTG  log10 binding signal           0.62
32  CCGATTAACATCAAAAAATCCCTTGATGTTAATCGGGTCTTGATTCGCTTGACGCTGCTG  log10 binding signal           0.88
33  CCGATTAACATCAGGAATACCCCTGATGTTAATCGGGTCTTGATTCGCTTGACGCTGCTG  log10 binding signal           0.81
34  CCGATTAACATCAGGGGGGTACCTGATGTTAATCGGGTCTTGATTCGCTTGACGCTGCTG  log10 binding signal           0.52
35  CCGATTAACATCAGGAACTACCCTGATGTTAATCGGGTCTTGATTCGCTTGACGCTGCTG  log10 binding signal           0.44
